System: Hep-2 Cells
Test: Cytotoxicity to Hep-2 cells (visual and dye uptake, rapidly dividing cells)
Type: cell-based, human
Settings: Homo sapiens
metric name: IC50 (µM)
Hi! Could you send only the number? It should be in µM, unit omitted.

I have this molecule here, NC(=O)c1ncn([C@@H]2O[C@H](CO)[C@@H](O)[C@H]2O)n1 , and I need its recorded IC50.
41

* * *

System: Hep-2 Cells
Experiment: Cytotoxicity by morphological changes in HEp-2 cells (CPE inhibition assay)
Format: cell-based, human
Settings: Homo sapiens, HEp-2, Table 12, CPE; test with CH18537 (B); HEp-2
metric name: IC50 (µM)
Hi! Could you send only the number? It should be in µM, unit omitted.

I have this molecule here, NC(=O)c1ncn([C@@H]2O[C@H](CO)[C@@H](O)[C@H]2O)n1 , and I need its recorded IC50.
208

* * *

System: Hep-2 Cells
Test: Cytotoxicity by morphological changes in HEp-2 cells (CPE inhibition assay)
Format: cell-based, human
Details: Homo sapiens, HEp-2, 48 h, Table 13, CPE; q.d., Day 2; HEp-2
metric name: IC50 (µM)
Hi! Could you send only the number? It should be in µM, unit omitted.

I have this molecule here, NC(=O)c1ncn([C@@H]2O[C@H](CO)[C@@H](O)[C@H]2O)n1 , and I need its recorded IC50.
320

* * *

Tested on: RSV strain A2
Assay: CPE inhibition assay in HEp-2 cells
Format: cell-based, Respiratory syncytial virus
Conditions: human respiratory syncytial virus, HEp-2, 0 h, Table 13, CPE; q.d., Day 0 (added immediately after virus exposure); HEp-2
metric name: EC50 (µM)
Hi! Could you send only the number? It should be in µM, unit omitted.

I have this compound here, NC(=O)c1ncn([C@@H]2O[C@H](CO)[C@@H](O)[C@H]2O)n1 , and I need its recorded EC50.
12

* * *

System: Hep-2 Cells
Assay: Cytotoxicity by morphological changes in HEp-2 cells (CPE inhibition assay)
Assay type: cell-based, human
Conditions: Table 12, CPE; test with CH18537 (B); HEp-2
metric name: IC50

What IC50 appears in the records for this substance with Hep-2 Cells? 2-5A-L2-AsAsAsAATGGGGCAAAsTsAsA [MP351]
> 3.2 µM

* * *

Let's look at some substances and their measured pEC50.
Test system: A2 strain RSV
Test: CPE inhibition assay in MA-104 cells
Format: cell-based, Respiratory syncytial virus
Settings: MA-104 cells, A2 strain RSV (Table 8); read-out: EC50 Concentration for 50% inhibition of virus replication
Units for pEC50: none; it is -log10 of a concentration expressed in mol/L.

Use the examples below as a reference point.
INSERT INTO results (substance, metric_name, endpoint_result) VALUES
  ('2-5A-L2-AsAsAsAATGGGGCAAAsTsAsA [MP351]', 'pEC50', 6.52),
  ('AsTsAsAsGsGsGsGsAsAsCsAsTsAsAsAsA (ATAAGGGGAACATAAAA; antisense; DNA, all phosphorothioate, methylation of C not given here) [MP317, control all PS oligonucleotide that still contained the G quartet motif but otherwise scrambled]', 'pEC50', 6.00),
  ('AsAsAsAsAsTsGsGsGsGsCsAsAsAsTsAsA (AAAAATGGGGCAAATAA; antisense; DNA, all phosphorothioate, methylation of C not given here) [MP273]', 'pEC50', 5.52),
  ('AsAsAsAATGGGGCAAAsTsAsA (AAAAATGGGGCAAATAA; antisense; DNA, linkages s3 o10 s3 (s phosphorothioate, o phosphodiester), methylation of C not given here) [MP320, gapmer antisense oligonucleotide, three thiophosphorylated linkages at both termini]', 'pEC50', 5.00);

Okay, next one:
I have this substance here, GsAsAsGsAsCsAsGsAsAsTsAsAsGsAsTsA (GAAGACAGAATAAGATA; antisense; DNA, all phosphorothioate, methylation of C not given here) [MP318] , and I need its recorded pEC50.
5.00

* * *

System: RSV 393 (clinical isolate)
Assay: CPE inhibition assay in HEp-2 cells, RSV 393
Assay type: cell-based, Respiratory syncytial virus
Details: Table 12, CPE, once a day for two days
metric name: pEC50
Units for pEC50: none; it is -log10 of a concentration expressed in mol/L.

I have this substance here, 2-5A-L2-AsAsAsAATGGGGCAAAsTsAsA [MP351] , and I need its recorded pEC50.
6.52

* * *

Test system: RSV strain A2
Experiment: Neutral red uptake assay of CPE inhibition in HEp-2 cells
Format: cell-based, Respiratory syncytial virus
Settings: human respiratory syncytial virus, HEp-2, 48 h, Table 13, neutral red; q.d., fresh compound up to Day 2 post infection; HEp-2; read-out: EC50
metric name: EC50 (µM)
Hi! Could you send only the number? It should be in µM, unit omitted.

What EC50 appears in the records for this molecule with RSV strain A2? NC(=O)c1ncn([C@@H]2O[C@H](CO)[C@@H](O)[C@H]2O)n1
4

* * *

Tested on: RSV Long (A)
Test: Neutral red uptake assay in HEp-2 cells, RSV strain Long
Assay type: cell-based, Respiratory syncytial virus
Settings: human respiratory syncytial virus, 48 h, Table 12, neutral red, once a day for two days
metric name: pEC50
Units for pEC50: none; it is -log10 of a concentration expressed in mol/L.

I have this compound here, NC(=O)c1ncn([C@@H]2O[C@H](CO)[C@@H](O)[C@H]2O)n1 [Ribavirin] , and I need its recorded pEC50.
4.92

* * *

Let's look at some substances and their measured pIC50.
Test system: MA-104 cells
Experiment: Cytotoxicity graded by morphological change in MA-104 cells
Type: cell-based, African green monkey
Details: MA-104 cells (Table 8); read-out: IC50 Conc. for 50% cytotoxicity grade by morphological change
Units for pIC50: none; it is -log10 of a concentration expressed in mol/L.

INSERT INTO measurements (substance, endpoint_result) VALUES
  ('AsTsAsAsGsGsGsGsAsAsCsAsTsAsAsAsA (ATAAGGGGAACATAAAA; antisense; DNA, all phosphorothioate, methylation of C not given here) [MP317, control all PS oligonucleotide that still contained the G quartet motif but otherwise scrambled]', 5.30);

Okay, next one:
I have this substance here, GsAsAsGsAsCsAsGsAsAsTsAsAsGsAsTsA (GAAGACAGAATAAGATA; antisense; DNA, all phosphorothioate, methylation of C not given here) [MP318] , and I need its recorded pIC50.
5.10

* * *

Test system: Hep-2 Cells
Experiment: Neutral red uptake assay of cytotoxicity in HEp-2 cells
Format: cell-based, human
Conditions: Homo sapiens, HEp-2, 72 h, Table 11, neutral red; B.I.D. 3 days; HEp2
metric name: IC50 (µM)
Hi! Could you send only the number? It should be in µM, unit omitted.

I have this compound here, NC(=O)c1ncn([C@@H]2O[C@H](CO)[C@@H](O)[C@H]2O)n1 , and I need its recorded IC50.
700

* * *

Tested on: RSV strain A2
Test: CPE inhibition assay in HEp-2 cells
Assay type: cell-based, Respiratory syncytial virus
Conditions: human respiratory syncytial virus, HEp-2, 72 h, Table 10, CPE; B.I.D. 3 days; HEp2; read-out: EC50
pEC50: −log10 of the molar value.
metric name: pEC50

I have this compound here, NC(=O)c1ncn([C@@H]2O[C@H](CO)[C@@H](O)[C@H]2O)n1 , and I need its recorded pEC50.
> 5.40

* * *

Test system: Hep-2 Cells
Test: Neutral red uptake assay of cytotoxicity in HEp-2 cells
Format: cell-based, human
Details: Homo sapiens, HEp-2, Table 12, neutral red; test with Long (A); HEp-2
metric name: pIC50
Units for pIC50: none; it is -log10 of a concentration expressed in mol/L.

I have this molecule here, NC(=O)c1ncn([C@@H]2O[C@H](CO)[C@@H](O)[C@H]2O)n1 [Ribavirin] , and I need its recorded pIC50.
3.55

* * *

System: RSV strain A2
Assay: Neutral red uptake assay of CPE inhibition in HEp-2 cells
Type: cell-based, Respiratory syncytial virus
Details: human respiratory syncytial virus, HEp-2, 72 h, Table 11, neutral red; B.I.D. 3 days; HEp2; read-out: EC50
metric name: EC50

I have this compound here, NC(=O)c1ncn([C@@H]2O[C@H](CO)[C@@H](O)[C@H]2O)n1 , and I need its recorded EC50.
< 4 µM

* * *

Test system: RSV strain A2
Assay: CPE inhibition assay in HEp-2 cells
Assay type: cell-based, Respiratory syncytial virus
Details: human respiratory syncytial virus, HEp-2, 96 h, Table 10, CPE; q.d. 4 days; HEp2; read-out: EC50
metric name: EC50

I have this compound here, NC(=O)c1ncn([C@@H]2O[C@H](CO)[C@@H](O)[C@H]2O)n1 , and I need its recorded EC50.
< 4 µM

* * *

Tested on: Hep-2 Cells
Test: Cytotoxicity by morphological changes in HEp-2 cells (CPE inhibition assay)
Type: cell-based, human
Settings: Homo sapiens, HEp-2, Table 12, CPE; test with 393 (clinical isolate); HEp-2
metric name: pIC50
Units for pIC50: none; it is -log10 of a concentration expressed in mol/L.

I have this compound here, NC(=O)c1ncn([C@@H]2O[C@H](CO)[C@@H](O)[C@H]2O)n1 , and I need its recorded pIC50.
4.02
